Measured % inhibition Apo pol 5', listed per entry.
# TARGET UNDER TEST: UniProt:Q8ILY1
# Sequence (Q8ILY1 entry or part of it): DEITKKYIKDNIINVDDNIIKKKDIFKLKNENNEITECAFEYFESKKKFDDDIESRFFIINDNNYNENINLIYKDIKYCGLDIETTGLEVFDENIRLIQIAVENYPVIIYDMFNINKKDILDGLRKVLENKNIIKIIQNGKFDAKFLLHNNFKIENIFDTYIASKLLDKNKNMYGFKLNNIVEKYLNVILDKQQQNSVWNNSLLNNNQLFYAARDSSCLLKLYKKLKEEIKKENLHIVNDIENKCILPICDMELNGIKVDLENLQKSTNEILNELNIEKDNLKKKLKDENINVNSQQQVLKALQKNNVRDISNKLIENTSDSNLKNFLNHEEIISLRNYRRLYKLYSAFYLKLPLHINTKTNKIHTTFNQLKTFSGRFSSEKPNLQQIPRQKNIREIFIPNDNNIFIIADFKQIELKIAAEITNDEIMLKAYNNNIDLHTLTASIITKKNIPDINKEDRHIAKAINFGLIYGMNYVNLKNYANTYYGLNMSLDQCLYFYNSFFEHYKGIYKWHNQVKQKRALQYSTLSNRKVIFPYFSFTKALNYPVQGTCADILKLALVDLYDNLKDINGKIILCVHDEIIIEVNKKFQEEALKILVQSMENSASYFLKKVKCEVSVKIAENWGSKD
# PROCEDURE TEXT: Fluorescence-based high-throughput DNA polymerase assay (molecular beacon), primary screen and dose-response
# Format: biochemical
# CONDITION CONTEXT: DRC-2; 5'; concentration 80
Give the quantity in %, number only.

Worked examples follow.
O=C(c1c[nH]c2ncccc12)N1CCCC1 [Molecule 63, O=C(c1c[nH]c2c1cccn2)N1CCCC1]
32
O=C(Nc1c2c(nn1-c1ccc(Oc3ccccc3)cc1)CSC2)c1ccco1
55
CCOc1ccc(/C=C2\N=C(c3cc([N+](=O)[O-])cc([N+](=O)[O-])c3)OC2=O)cc1
60

Next up:
Input line: Enter reported % inhibition Apo pol 5' observed with UniProt:Q8ILY1 for N#CC(C#N)=C1SCN(c2cccc(Cl)c2)CS1
Output line: 60
